- assayed.target: T1, hIL2-DM-his (human, UniProt P60568 21-153)
- T1 construct: expressed in ExpiCHO-S cells, nickel-column purified; also called hIL-2 mutein containing two point mutations K64G and N90R (with a his-tag); not shown: his-tag
- T1 sequence (P60568 21-153 K84G/N110R): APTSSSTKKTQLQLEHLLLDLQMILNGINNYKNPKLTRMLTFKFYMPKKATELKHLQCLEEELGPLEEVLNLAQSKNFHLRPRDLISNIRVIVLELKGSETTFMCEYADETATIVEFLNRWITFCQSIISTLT
- assay.details: BLI ForteBio, Ab on Protein A sensor
So I've got a bunch of binders here, and I need their kon values.
Return type: number; implicit unit M⁻¹ s⁻¹.

kon for K4G1 (antibody, V domains shown) VH: QVQLVQSGAEVKKPGATVKISCKVSGDTITAYYMHWVRQAPGQGLEWIGRIDPEDDSTKYAENFKGRVTITADTSTDTAYMELSSLRSEDTAVYYCTTVTFYYSRELRWFAYWGQGTLVTVSS VL: DIVLTQSPATLSLSPGERATLSCQASQYIGNYLSWYQQKPGQAPRLLIYSATSLASGIPARFSGSRSGTDFTLTISSLEPEDFAVYYCLQHYSTPYTFGQGTKLEIK ?
352000

Proceed to K3G7 (antibody, V domains shown) VH: QVQLVQSGAEVKKPGATVKISCKVSGDTITAYYMHWVRQAPGQGLEWIGRIDPEDDSTKYAENFKGRVTITADTSTDTAYMELSSLRSEDTAVYYCTTITFYYTRELRWFAYWGQGTLVTVSS VL: DIVLTQSPATLSLSPGERATLSCQASQYIGNYLSWYQQKPGQAPRLLIYQATSLASGIPARFSGSRSGTDFTLTISSLEPEDFAVYYCLQHYSTPYTFGQGTKLEIK
336000

Likewise for K4G8 (antibody, V domains shown) VH: QVQLVQSGAEVKKPGATVKISCKVSGDTITAYYMHWVRQAPGQGLEWIGRIDPEDDSTKYAENFKGRVTITADTSTDTAYMELSSLRSEDTAVYYCTTITFLYSRELRWFAYWGQGTLVTVSS VL: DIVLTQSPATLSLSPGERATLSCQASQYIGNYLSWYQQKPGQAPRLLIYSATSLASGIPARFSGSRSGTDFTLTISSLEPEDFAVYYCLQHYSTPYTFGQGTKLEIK ?
344000

Can you check K2G6 (antibody, V domains shown) VH: QVQLVQSGAEVKKPGATVKISCKVSGDTITAYYMHWVRQAPGQGLEWIGRIDPDDDSTKYAENFKGRVTITADTSTDTAYMELSSLRSEDTAVYYCTTITFYYSRELRWFAYWGQGTLVTVSS VL: DIVLTQSPATLSLSPGERATLSCQASQYISNYLSWYQQKPGQAPRLLIYSATSLASGIPARFSGSRSGTDFTLTISSLEPEDFAVYYCLQHYSTPYTFGQGTKLEIK next?
446000

Next: K1G11 (antibody, V domains shown) VH: QVQLVQSGAEVKKPGATVKISCKVSGDTITAYYMHWVRQAPGQGLEWIGRIDPDDDSTKYAENFKGRVTITADTSTDTAYMELSSLRSEDTAVYYCTTITFLYSRELRWFAYWGQGTLVTVSS VL: DIVLTQSPATLSLSPGERATLSCQASQYISNYLSWYQQKPGQAPRLLIYQATSLASGIPARFSGSRSGTDFTLTISSLEPEDFAVYYCLQHYSTPYTFGQGTKLEIK
401000
